Test: HUVEC growth inhibition – cell-based, human, primary screen (AID 575);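 further: 100% = median of untreated cell wells with 0.1% DMSO on each plate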
Details: HUVEC proliferation, CellTiter-Glo luminescence, 72 h; at 10 µM; hits give low values
Active and inactive are the calls of the source.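 How the source made its calls: active means viability at or below 30% in both replicate assays; inconclusive means viability at or below 30% in just one of the two assays; inactive means the rest.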
Consider the following molecules; for each one, report its viability.

// lookup viability for Cc1ccc(NC(=O)CC2Nc3ccccc3NC2=O)cc1Cl (stereo unspecified)
10.1% (active)

Param item: OC(CCN1CCCC1)(c1ccccc1)C1CCCCC1 (stereo unspecified)
69.5% (inactive)

Do the same for Cc1ccc(CNc2cc(-c3nn4c(C)nnc4s3)ccc2C)s1 please
45.1% (inactive)

And the next one, CC(=O)Nc1ccc(Cc2ccncc2)cc1 ?
90.2% (inactive)

Param item: COc1ccc(-c2c3c(=O)n(C)c(=O)n(C)c3cn2-c2cccc(OC)c2)cc1
95.9% (inactive)

What about this molecule? Cn1c(Cc2ccccc2)nnc1SCC(=O)c1ccc(Br)s1
81.4% (inactive)

Moving on to the next molecule: COc1ccc(N2CCN(CCNS(=O)(=O)c3cccc4nsnc34)CC2)cc1
102% (inactive)

Another molecule: O=C(CN1CCN(c2ncc(C(F)(F)F)cc2Cl)CC1)Nc1ccc2c(c1)OCO2
85.7% (inactive)

CC1=C(C(=O)N2CCOCC2)C(c2ccccc2F)C2=C(CCCC2=O)N1 (stereo unspecified) ?
104% (inactive)

Same question for CC(C)[N+]1(C)[C@@H]2CC[C@H]1CC(OC(=O)C(CO)c1ccccc1)C2 (stereo partly specified) please.
96% (inactive)

Do the same for Cc1cc(=O)c2n(Cc3ccccc3Cl)nc[n+]2[nH]1 please
100% (inactive)
